Origin of values: ChEMBL document CHEMBL2311383

Could you please report measured Cmax for the items listed next?
test_summary: Cmax in Lewis rat at 10 mg/kg, po
Type: ADME, organism-based
Parameters: dose 10 mg/kg, route oral
setup_conditions: in vivo
Answers are plain numbers, in nM.

>>> recorded_number("O=C(NCCC1CC1)c1ccc(N2CCN(C(=O)c3cc(Cl)ccc3C(F)(F)F)CC2)nn1")
500
>>> recorded_number("O=C(NCCC1CC1)c1ccc(N2CCN(C(=O)c3cc(F)ccc3C(F)(F)F)CC2)nn1")
900

Here is another compound to look at.
Given item O=C(CNC(=O)c1ccc(N2CCN(C(=O)c3ccccc3C(F)(F)F)CC2)nn1)c1ccccc1 , the value recorded as its Cmax is 1900

----------
Please provide measured Papp A→B for the entries that follow.
test_summary: Apparent permeability from apical to basolateral side in human Caco2 cells
Type: ADME, cell-based
setup_conditions: Caco-2
Numbers only, in ×10⁻⁶ cm/s.

Some compounds with recorded Papp A→B:
>>> recorded_number("O=C(NCCC1CC1)c1ccc(N2CCN(C(=O)c3ccccc3C(F)(F)F)CC2)nn1")
24
>>> recorded_number("Cc1ccc(CNC(=O)c2ccc(N3CCN(C(=O)c4ccccc4C(F)(F)F)CC3)nn2)o1")
25
>>> recorded_number("O=C(CNC(=O)c1ccc(N2CCN(C(=O)c3ccccc3C(F)(F)F)CC2)nn1)c1ccccc1")
22
>>> recorded_number("CC(C)CCNC(=O)c1ccc(N2CCN(C(=O)c3ccccc3C(F)(F)F)CC2)nn1")
25

Entry under test: O=C(NC[C@H](O)c1ccccc1)c1ccc(N2CCN(C(=O)c3ccccc3C(F)(F)F)CC2)nn1 . Its Papp A→B was 22

----------
test_summary: Apparent permeability from apical to basolateral side in human Caco2 cells
Type: ADME, cell-based
setup_conditions: Caco-2
Lab note: compare Papp A→B with 30 ×10⁻⁶ cm/s, writing T if less and F if equal or more.

Look over these answered cases.
>>> assigned_class("O=C(Nc1ccccc1)c1ccc(N2CCN(C(=O)c3ccccc3C(F)(F)F)CC2)nn1")
"T"
>>> assigned_class("O=C(NCc1nccs1)c1ccc(N2CCN(C(=O)c3ccccc3C(F)(F)F)CC2)nn1")
"T"
>>> assigned_class("O=C(NCc1ccccc1)c1ccc(N2CCN(C(=O)c3ccccc3C(F)(F)F)CC2)nn1")
"F"
>>> assigned_class("O=C(NCCCC1CC1)c1ccc(N2CCN(C(=O)c3ccccc3C(F)(F)F)CC2)nn1")
"F"
>>> assigned_class("CCCCCCNC(=O)c1ccc(N2CCN(C(=O)c3ccccc3C(F)(F)F)CC2)nn1")
"T"
>>> assigned_class("O=C(NCCC1CC1)c1ccc(N2CCN(C(=O)c3cc(Cl)ccc3C(F)(F)F)CC2)nn1")
"F"
>>> assigned_class("O=C(NCCC1CC1)c1ccc(N2CCN(C(=O)c3cccc(F)c3C(F)(F)F)CC2)nn1")
"T"

Consider now this further compound.
In: In the record for O=C(Nc1ccc(Cl)cc1)c1ccc(N2CCN(C(=O)c3ccccc3C(F)(F)F)CC2)nn1 , is Papp A→B less than 30 ×10⁻⁶ cm/s?
Out: T

----------
Give measured Tmax for each item. Keep answers brief.
test_summary: Tmax in Lewis rat at 10 mg/kg, po
Type: ADME, organism-based
Set-up: dose 10 mg/kg, route oral
setup_conditions: in vivo
Answers are plain numbers, in h.

>>> recorded_number("O=C(NCCC1CC1)c1ccc(N2CCN(C(=O)c3cc(F)ccc3C(F)(F)F)CC2)nn1")
3.3
>>> recorded_number("O=C(NCCC1CC1)c1ccc(N2CCN(C(=O)c3cc(Cl)ccc3C(F)(F)F)CC2)nn1")
2.3

Could you now consider this next compound?
So for O=C(CNC(=O)c1ccc(N2CCN(C(=O)c3ccccc3C(F)(F)F)CC2)nn1)c1ccccc1 , the logged Tmax turned out to be 3.3

----------
test_summary: AUC (0 to infinity) in Lewis rat at 2 mg/kg, po
Format: ADME, organism-based
Design: time infinity, dose 2 mg/kg, route oral
setup_conditions: plasma
measurement_type: AUC(0-inf) (µM·h)
Give bare numbers, in µM·h.

Quick note, AUC(0-inf) for O=C(Nc1nc2ccccc2[nH]1)c1ccc(N2CCN(C(=O)c3ccccc3C(F)(F)F)CC2)nn1 landed at 0.6

----------
test_summary: Protein binding in plasma (unknown origin)
Type: ADME, cell-free
setup_conditions: read-out: PPB (converted)
measurement_type: fraction unbound
Answers are plain numbers.

Value of measured fraction unbound for the entry CC(C)CCNC(=O)c1ccc(N2CCN(C(=O)c3ccccc3C(F)(F)F)CC2)nn1 : 0.22

----------
Would you kindly list clearance for each of these compounds?
test_summary: Clearance in Lewis rat at 3 mg/kg, iv
Format: ADME, organism-based
Parameters: dose 3 mg/kg, route intravenous
setup_conditions: in vivo
Give bare numbers, in mL/min/kg.

Study these solved cases before continuing.
>>> recorded_number("O=C(NCCC1CC1)c1ccc(N2CCN(C(=O)c3cc(Cl)ccc3C(F)(F)F)CC2)nn1")
14.3
>>> recorded_number("O=C(NCCC1CC1)c1ccc(N2CCN(C(=O)c3ccccc3C(F)(F)F)CC2)nn1")
31.7

# compound O=C(CNC(=O)c1ccc(N2CCN(C(=O)c3ccccc3C(F)(F)F)CC2)nn1)c1ccccc1 ; its clearance = 4.67

----------
Record form. Attribute: Vd. Fill in for each entry.
test_summary: Volume of distribution at steady state in Lewis rat at 1 mg/kg, iv
Assay type: ADME, organism-based
Design: dose 1 mg/kg, route intravenous
setup_conditions: in vivo, read-out: Vdss
One number for each entry, in L/kg.

>>> recorded_number("O=C(NCCC1CC1)c1ccc(N2CCN(C(=O)c3cc(F)ccc3C(F)(F)F)CC2)nn1")
2.7

molecule O=C(Nc1nc2ccccc2[nH]1)c1ccc(N2CCN(C(=O)c3ccccc3C(F)(F)F)CC2)nn1 , Vd observed: 1.8

----------
target_entity: Acyl-CoA desaturase 1 (Mus musculus, UniProt P13516)
Sequence (P13516 whole entry): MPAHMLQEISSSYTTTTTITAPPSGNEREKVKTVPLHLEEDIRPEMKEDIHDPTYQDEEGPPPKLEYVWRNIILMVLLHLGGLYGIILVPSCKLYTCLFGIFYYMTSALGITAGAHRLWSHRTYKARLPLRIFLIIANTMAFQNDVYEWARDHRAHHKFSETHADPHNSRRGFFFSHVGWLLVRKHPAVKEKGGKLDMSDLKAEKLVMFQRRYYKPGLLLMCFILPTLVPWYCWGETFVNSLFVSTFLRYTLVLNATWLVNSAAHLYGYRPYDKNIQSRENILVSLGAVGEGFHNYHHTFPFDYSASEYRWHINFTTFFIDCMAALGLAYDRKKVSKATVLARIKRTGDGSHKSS
test_summary: Inhibition of SCD1 in ICR mouse liver microsome using [9,10 3H]- stearoyl-Coenzyme A substrate assessed as decreased production of tritiated water after 20 min by scintillation counting analysis
measurement_type: IC50 (µM)
Give bare numbers, in µM.

Worked cases, IC50 given:
>>> recorded_number("CN(C)c1ccccc1C(=O)N1CCN(c2ccc(C(=O)NCCC3CC3)nn2)CC1")
0.92
>>> recorded_number("CCOCCNC(=O)c1ccc(N2CCN(C(=O)c3ccccc3C(F)(F)F)CC2)nn1")
1.25

For each entry beneath this line, provide reported IC50.
1. COc1ccc(F)cc1C(=O)N1CCN(c2ccc(C(=O)NCCC3CC3)nn2)CC1
2. O=C(Nc1nc2ccccc2[nH]1)c1ccc(N2CCN(C(=O)c3ccccc3C(F)(F)F)CC2)nn1

Out:
0.71
0.011

# batch size: 7; output IC50 per entry
1. O=C(NCCC1CC1)c1ccc(N2CCN(C(=O)c3cc(F)ccc3F)CC2)nn1
2. CCCCCCCNC(=O)c1ccc(N2CCN(C(=O)c3ccccc3C(F)(F)F)CC2)nn1
3. O=C(Nc1ccccc1)c1ccc(N2CCN(C(=O)c3ccccc3C(F)(F)F)CC2)nn1
4. O=C(Nc1ccccn1)c1ccc(N2CCN(C(=O)c3ccccc3C(F)(F)F)CC2)nn1
5. O=C(CNC(=O)c1ccc(N2CCN(C(=O)c3ccccc3C(F)(F)F)CC2)nn1)c1ccccc1
6. Cc1ccc(CNC(=O)c2ccc(N3CCN(C(=O)c4ccccc4C(F)(F)F)CC3)nn2)o1
7. CC(C)CCNC(=O)c1ccc(N2CCN(C(=O)c3ccccc3C(F)(F)F)CC2)cn1

Out:
1. 3.11
2. 0.018
3. 0.083
4. 1.4
5. 0.042
6. 0.015
7. 0.22

----------
test_summary: Apparent permeability from basolateral to apical side in human Caco2 cells
Format: ADME, cell-based
setup_conditions: Caco-2
So basically: Papp B→A at 20 ×10⁻⁶ cm/s or higher? That is Condition met. Lower than 20 ×10⁻⁶ cm/s? That is Condition not met.

Consider the following illustrative entries.
>>> assigned_class("O=C(NCc1ccc(C(F)(F)F)o1)c1ccc(N2CCN(C(=O)c3ccccc3C(F)(F)F)CC2)nn1")
"Condition not met"
>>> assigned_class("O=C(Nc1ccccc1)c1ccc(N2CCN(C(=O)c3ccccc3C(F)(F)F)CC2)nn1")
"Condition not met"
>>> assigned_class("O=C(NCCC1CC1)c1ccc(N2CCN(C(=O)c3cc(Cl)ccc3C(F)(F)F)CC2)nn1")
"Condition met"
>>> assigned_class("O=C(NCc1nccs1)c1ccc(N2CCN(C(=O)c3ccccc3C(F)(F)F)CC2)nn1")
"Condition met"
>>> assigned_class("O=C(NCCCC1CC1)c1ccc(N2CCN(C(=O)c3ccccc3C(F)(F)F)CC2)nn1")
"Condition met"
>>> assigned_class("O=C(CNC(=O)c1ccc(N2CCN(C(=O)c3ccccc3C(F)(F)F)CC2)nn1)c1ccccc1")
"Condition met"
>>> assigned_class("O=C(NCCC1CC1)c1ccc(N2CCN(C(=O)c3cc(F)ccc3C(F)(F)F)CC2)nn1")
"Condition met"
>>> assigned_class("O=C(NCCc1ccccc1)c1ccc(N2CCN(C(=O)c3ccccc3C(F)(F)F)CC2)nn1")
"Condition not met"
>>> assigned_class("Cc1cc(C(=O)N2CCN(c3ccc(C(=O)NCCC4CC4)nn3)CC2)c(C(F)(F)F)o1")
"Condition met"
>>> assigned_class("O=C(NCc1ccccc1)c1ccc(N2CCN(C(=O)c3ccccc3C(F)(F)F)CC2)nn1")
"Condition met"

Please find the next compound below.
In: Reported Papp B→A reaches at least 20 ×10⁻⁶ cm/s for Cc1ccc(CNC(=O)c2ccc(N3CCN(C(=O)c4ccccc4C(F)(F)F)CC3)nn2)o1 ?
Out: Condition met
